Target: mouse TAAR1 (Mus musculus (Mouse), UniProt Q923Y8)
Sequence (Q923Y8 whole entry): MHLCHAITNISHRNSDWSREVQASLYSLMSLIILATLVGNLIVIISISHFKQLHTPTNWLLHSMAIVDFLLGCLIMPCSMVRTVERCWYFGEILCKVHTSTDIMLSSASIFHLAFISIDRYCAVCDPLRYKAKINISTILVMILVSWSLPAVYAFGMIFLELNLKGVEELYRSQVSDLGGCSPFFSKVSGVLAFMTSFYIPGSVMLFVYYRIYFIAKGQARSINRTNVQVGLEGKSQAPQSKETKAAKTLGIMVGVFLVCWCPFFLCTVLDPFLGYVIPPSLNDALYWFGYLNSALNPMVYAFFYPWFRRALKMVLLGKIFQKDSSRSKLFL
Assay: Radioligand binding assay on mouse TAAR1
Conditions: mouse TAAR1 (first value of the cell), HEK-293 membranes; read-out: Ki (μM) mouse/rat
Please respond with reported Ki for every item in the list.
Answers are plain numbers, in µM.

- COMPOUND: "FC(F)(F)c1ncc(Nc2ccc([C@H]3CNCCO3)cc2)cn1"
  RECORDED_MEASUREMENT: 0.007
- COMPOUND: "CCOc1cnc(Nc2ccc([C@@H]3CNCCO3)cc2)nc1"
  RECORDED_MEASUREMENT: 0.0116
- COMPOUND: "Fc1cc(C2CNCCO2)ccc1Nc1ncc(Cl)cn1 (racemic)"
  RECORDED_MEASUREMENT: 0.0062

Each compound below has a reported value. Please supply its Ki.
1. c1ccc(-n2ccc(Nc3ccc([C@@H]4CNCCO4)cc3)n2)cc1
2. CCc1cnc(Nc2ccc(C3CNCCO3)cc2F)nc1 (racemic)
3. FC(F)Oc1cnc(Nc2ccc([C@@H]3CNCCO3)cc2)nc1
4. Clc1cccc2ccc(Nc3ccc([C@H]4CNCCO4)cc3)nc12
5. COc1ccc(CNc2ccc([C@H]3CNCCO3)cc2)cc1
6. COCCOc1cnc(Nc2ccc([C@H]3CNCCO3)cc2F)nc1

### Response
[0.0006, 0.0029, 0.0047, 0.0005, 0.0453, 0.0196]

---

Target: rat TAAR1 (Rattus norvegicus (Rat))
Sequence (Q923Y9 whole entry): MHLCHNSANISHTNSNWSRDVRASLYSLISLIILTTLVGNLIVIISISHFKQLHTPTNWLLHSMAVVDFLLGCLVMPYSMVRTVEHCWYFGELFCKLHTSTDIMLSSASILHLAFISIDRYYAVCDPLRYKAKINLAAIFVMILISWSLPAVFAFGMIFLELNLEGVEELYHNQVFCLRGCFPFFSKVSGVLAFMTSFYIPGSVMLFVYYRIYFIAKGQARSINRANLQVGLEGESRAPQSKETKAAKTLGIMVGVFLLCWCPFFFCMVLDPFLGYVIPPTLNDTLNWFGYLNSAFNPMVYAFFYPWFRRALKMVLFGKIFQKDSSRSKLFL
Assay: Radioligand binding assay on rat TAAR1
Details: rat TAAR1 (second value of the cell), HEK-293 membranes; read-out: Ki (μM) mouse/rat
# if measured Ki < 0.2 µM: Criterion met  # else: Criterion not met

- MOLECULE: "Fc1cc(Br)cnc1Nc1ccc([C@H]2CNCCO2)cc1"
  CATEGORY_LABEL: "Criterion met"

### Prompt A record lists CC(Nc1ccc([C@H]2CNCCO2)cc1)c1ccc(Cl)cc1 (mixture of isomers) . Is its Ki below 0.2 µM?
### Response Criterion not met

### Prompt A record lists `CCc1cnc(Nc2ccc([C@H]3CNCCO3)cc2)nc1C` . Is its Ki below 0.2 µM?
### Response Criterion not met

### Prompt A record lists `Clc1cnc(Nc2ccc([C@@H]3CNCCO3)cc2)nc1` . Is its Ki below 0.2 µM?
### Response Criterion met

### Prompt A record lists `Fc1cc([C@@H]2CNCCO2)ccc1Nc1ncc(Br)cn1` . Is its Ki below 0.2 µM?
### Response Criterion met

---

Biological target: rat TAAR1 (Rattus norvegicus (Rat))
Assay: Radioligand binding assay on rat TAAR1
Details: rat TAAR1 (second value of the cell), HEK-293 membranes; read-out: Ki (μM) mouse/rat
Method: Construction of TAAR Expression Plasmids and Stably Transfected Cell Lines For the construction of expression plasmids the coding sequences of human, rat and mouse TAAR 1 were amplified from genomic DNA essentially as described by Lindemann et al.. The Expand High Fidelity PCR System (Roche Diagnostics) was used with 1.5 mM Mg^2+ and purified PCR products were cloned into pCR2.1-TOPO cloning vector (Invitrogen) following the instructions of the manufacturer. […]
# if measured Ki < 0.04 µM: class 1  # else: class 0

- COMPOUND: "CCOc1cnc(Nc2ccc([C@H]3CNCCO3)cc2F)nc1 [Example 133]"
  CATEGORY_LABEL: "class 1"
- COMPOUND: "Cc1cnc(Nc2ccc([C@H]3CNCCO3)cc2)cn1 [Example 156]"
  CATEGORY_LABEL: "class 0"
- COMPOUND: "FC(F)Oc1cnc(Oc2cnc(Nc3ccc([C@@H]4CNCCO4)cc3Cl)nc2)nc1 [Example 175]"
  CATEGORY_LABEL: "class 1"
- COMPOUND: "CCCc1cnc(Nc2ccc([C@@H]3CNCCO3)cc2F)nc1 [Example 128]"
  CATEGORY_LABEL: "class 1"

Kindly review the next compound as well.
### Prompt A record lists Clc1cnc(Nc2ccc([C@H]3CNCCO3)cc2)c(Cl)c1 [Example 58] . Is its Ki below 0.04 µM?
### Response class 0
